Please respond with reported log10(koff) for every item in the list.
# system: T1, Macaca fascicularis PDGFRb.mmh (Macaca fascicularis)
# T1 construct: Soluble monomeric construct; also called mfPDGFRb.mmh
# T1 chain: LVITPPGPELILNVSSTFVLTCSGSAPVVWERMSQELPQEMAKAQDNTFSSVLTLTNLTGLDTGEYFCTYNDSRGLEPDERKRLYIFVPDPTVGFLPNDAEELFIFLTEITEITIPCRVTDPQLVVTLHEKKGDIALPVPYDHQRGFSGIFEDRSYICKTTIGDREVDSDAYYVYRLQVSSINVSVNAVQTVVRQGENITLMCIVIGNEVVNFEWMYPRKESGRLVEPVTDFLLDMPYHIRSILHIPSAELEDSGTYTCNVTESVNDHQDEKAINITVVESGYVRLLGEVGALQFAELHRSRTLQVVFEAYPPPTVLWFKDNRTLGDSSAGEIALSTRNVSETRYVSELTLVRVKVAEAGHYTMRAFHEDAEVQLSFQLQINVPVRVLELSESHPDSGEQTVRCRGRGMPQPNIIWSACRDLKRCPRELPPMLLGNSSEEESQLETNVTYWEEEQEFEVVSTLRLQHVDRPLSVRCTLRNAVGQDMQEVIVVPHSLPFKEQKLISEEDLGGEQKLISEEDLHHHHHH
# assay_text: SPR, mAb captured, 25 C
Heads up: the numbers are on a log10 scale; they represent koff in s⁻¹.

QUERY: Please give the measured log10(koff) for this binder: H4H3374N (antibody, human IgG4, V domains shown, human IgG4 Fc (H4H prefix)) VH: QLQLQESGPGLVKPSETLSLTCTVSGGSITSSSYYWGWIRQPPGKGLEWIGSIYYRGSTNYNPSLKSRVTISVDSSKNQFYLKVSSVTAVDTAVYYCARQNGAARPSWFDPWGQGTLVTVSS VL: EIVLTQSPDTISLSPGERATLSCRASQSISSIYLAWYQQKPGQAPRLLIYGASSRVTGIPDRFSVSGSGTDFTLTISRLEPEDFAVYYCQHYGISPFTFGPGTKVDIR
RESULT: -3.33

QUERY: Using the record for H4H3104S (antibody, human IgG4, V domains shown, human IgG4 Fc (H4H prefix)) VH: QVQLVESGGGLVQPGGSLRLSCAAAGFTFSHYWMSWVRQAPGKGLEWVATIKKDGSERYYVDSVKGRFTISRDNARNSMYLEMNSLRTEDTAIYYCARDIVTPNTDYYFGMDVWGQGTTVTVSS VL: DIQLTQSPSTLSASVGDRVTITCRASQSFNNWLSWYQQKPGKAPKLLIYMASTLESGVPSRFSGSGSGTDFTLTINSLQPDDFATYYCQQSNSYSRTFGHGTKVEIK , report its log10(koff).
RESULT: -3.15

QUERY: Given the binder H1M3361N (antibody, mouse IgG1, V domains shown, mouse IgG1 Fc (H1M prefix)) VH: EVQLVESGGGLVQPGGSLRLSCAASGFTFSSYWMTWVRQAPGKGLEWVANIRQDGSDKYYVDSVKGRFTISRDNAKNSLFLQMNSLRAEDTAVYYCARTNGGTYGYNHYYYGMDVWGQGTTVTVSS VL: DIQMTQSPSSLSASVGDRVTITCRASQGIRNDLGWYQLKPGKAPKRLIFAASSLQSGVPSRFSGSGSGTEFTLTISSLQPEDFATYYCLQHNSYPWTFGQGTKVEIK , what is its reported log10(koff)?
RESULT: -4.41

QUERY: Would you mind telling me what log10(koff) value was observed for H4H3102S (antibody, human IgG4, V domains shown, human IgG4 Fc (H4H prefix)) VH: EVQLVESGGDLVHPGRSLRLSCVASGFTFDDYTMHWVRQAPGKGLEWVSAISWNGDNINYAGSVKGRFTISRDNAKNSLYLEMNSLRVEDTAFYYCAKGRGFSFGFNYLGQGTMVTVSS VL: AIRMTQSPSSLSASVGDRVTITCRASQDISNYLAWFQQQPGKAPKSLIYATSSLNSGVPSKFSGSGSGTDFTLTISSLQPEDFATYYCQQYKSYPLTFGGGTKVEIK ?
RESULT: -3.31

QUERY: Look up log10(koff) for this binder: H1M3374N (antibody, V domains shown, mouse Fc format; also called H2M3374N) VH: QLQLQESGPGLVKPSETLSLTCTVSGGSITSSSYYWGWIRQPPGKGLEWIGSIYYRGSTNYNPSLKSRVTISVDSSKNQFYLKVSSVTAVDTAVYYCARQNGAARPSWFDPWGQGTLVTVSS VL: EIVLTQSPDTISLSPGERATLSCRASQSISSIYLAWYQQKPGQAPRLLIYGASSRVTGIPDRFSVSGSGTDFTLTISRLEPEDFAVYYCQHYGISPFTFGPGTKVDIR
RESULT: -3.43

QUERY: Value lookup for log10(koff); key = H4H3105S (antibody, human IgG4, V domains shown, human IgG4 Fc (H4H prefix)) VH: QVQLVESGGSLVQPGGSLRLACTASGFTFSSYWMSWVRQAPGKGLEWVANIQQDENEKYYVDSVKGRFSISRDNAKKSLYLQMNSLRVEDTAVYFCARDLVPPRQGDYYHYFGMDVWGQGTTVTVSS VL: DIQLTQSPSTLSASVGDRVTITCRASQSISDWLAWYQQKPGKAPNLLIYKASTLESGVPSRFSGSGSGTEFTLTISSLQPDDFATYYCQQYNSYSRTFGQGTKVEIK
RESULT: -3.03
